- Test system: Plasmodium falciparum
- experimental.protocol: Antiplasmodial activity against chloroquine-sensitive Plasmodium falciparum MRC 20 infected in human red blood cells measured up to 24 hr
- Assay type: functional, organism-based
- applied.conditions: MRC 20, 24 h
Decide using IC50 alone. Strictly below 20 µg/mL: Met. Equal to or above 20 µg/mL: Not met.

Take the compound COc1ccc(-c2cc(-c3ccc(Cl)cc3)nc(N)n2)c(O)c1 and say whether its IC50 is less than 20 µg/mL. Not met

# repeat for Nc1nc(-c2ccc(OCc3ccccc3)cc2O)cc(-c2ccccc2Cl)n1 Met

----------
- System: Plasmodium falciparum
- experimental.protocol: Antiplasmodial activity against chloroquine-sensitive Plasmodium falciparum MRC 20 infected in human red blood cells measured up to 24 hr
- Type: functional, organism-based
- applied.conditions: MRC 20, 24 h
Decide using IC50 alone. Strictly below 9 mg/L: 1 (yes). Equal to or above 9 mg/L: 0 (no).

Take the compound Nc1nc(-c2ccc(F)cc2)cc(-c2ccc(OCc3ccccc3)cc2O)n1 and say whether its IC50 is less than 9 mg/L. 0 (no)

***
Take the compound Cc1ccc(-c2cc(-c3ccc(OCc4ccccc4)cc3O)nc(N)n2)cc1 and say whether its IC50 is less than 9 mg/L. 0 (no)

# repeat for Cc1cccc(-c2cc(-c3ccc(OCc4ccccc4)cc3O)nc(N)n2)c1 0 (no)

# repeat for COc1ccc(O)c(-c2cc(-c3cccc(Cl)c3)nc(N)n2)c1 0 (no)

# repeat for COc1ccc(-c2cc(-c3ccc(C)cc3)nc(N)n2)c(O)c1 1 (yes)

# repeat for COc1cccc(-c2cc(-c3cc(OC)ccc3O)nc(N)n2)c1 0 (no)

# repeat for COc1ccc(-c2cc(-c3ccc(F)cc3)nc(N)n2)c(O)c1 0 (no)

----------
- Tested on: Plasmodium falciparum
- experimental.protocol: Antiplasmodial activity against chloroquine-sensitive Plasmodium falciparum MRC 20 infected in human red blood cells measured up to 24 hr
- Format: functional, organism-based
- applied.conditions: MRC 20, 24 h
Decide using IC50 alone. Strictly below 5 µg/mL: met. Equal to or above 5 µg/mL: not met.

// below: answered molecules
Take the molecule COc1ccc(-c2cc(-c3ccc(OC)cc3O)nc(N)n2)cc1 and say whether its IC50 is less than 5 µg/mL. met

# repeat for COc1cccc(-c2cc(-c3ccc(OCc4ccccc4)cc3O)nc(N)n2)c1 not met

# repeat for COc1ccc(-c2cc(-c3ccc(OCc4ccccc4)cc3O)nc(N)n2)cc1OC met

# repeat for COc1ccc(O)c(-c2cc(-c3ccc(F)cc3)nc(N)n2)c1 not met

# repeat for COc1ccc(O)c(-c2cc(-c3ccccc3Cl)nc(N)n2)c1 not met

We next turn to a different molecule, shown below.
Take the molecule C=C[C@H]1C[N@@]2CC[C@H]1C[C@H]2[C@H](O)c1ccnc2ccc(OC)cc12 and say whether its IC50 is less than 5 µg/mL. not met

Just for reference, ChEMBL document CHEMBL3045180 is where these values come from.
